What cell viability was measured for each of the following?
# Test system: NOMO1
# Run Description: cell viability relative to DMSO control; higher = less cytotoxic
# Test Conditions: RPMI 5 mM glucose + 10% FBS; 48 h; 0.0211 µM
Give bare numbers, in %.

Compound	Experimental System	Reading Unit	cell viability
CC1=CC=CC=C1CN2C(=O)C/3=C(/CCN(CC4=CC=CC=C4)C3)N\5CC\N=C25	NOMO1	%	124
O=C(/C=C/c1c(C(=O)[O-])[nH]c2cc(Cl)cc(Cl)c12)Nc1ccccc1	NOMO1	%	95.1

Provide the reported cell viability of each entry below, same order.
1. NC(CO)(CO)CCc1ccc(Sc2cccc(OCc3ccccc3)c2)cc1Cl
2. COc1cc(O)c2c(c1)C1OC1C[C@H](O)[C@H](O)C(=O)/C=C\C[C@H](C)OC2=O (some centres undefined)
3. CC(C)n1nc(-c2ccc3oc(N)nc3c2)c2c(N)ncnc21
4. CC(C)Nc1cc(C(F)(F)F)cc2nc(NC(=O)c3cccnc3)nn12
5. O=C(CO)N1CCC(c2n[nH]c(-c3ccc(Cl)cc3)c2-c2ccncn2)CC1
6. CCN(CC)C(=S)SSC(=S)N(CC)CC

result:
1. 122
2. 120
3. 77.6
4. 106
5. 113
6. 120

query: Given "CC(=O)OCC(=O)[C@@]12\N=C(C)/O[C@@H]1C[C@H]3[C@@H]4CCC/5=C/C(=O)/C=C\[C@]5(C)[C@H]4[C@@H](O)C[C@]23C" , report its cell viability on NOMO1.
result: 105

---

# Tested on: P12-Ichikawa
# Run Description: cell viability relative to DMSO control; higher = less cytotoxic
# Test Conditions: HPLM + 10% dialyzed FBS; 48 h; 0.19 µM
Endpoint Name: cell viability
Write down the value, and be sure its unit follows.

Molecule	Experimental System	cell viability
CC(=O)OCC(=O)[C@@]12\N=C(C)/O[C@@H]1C[C@H]3[C@@H]4CCC/5=C/C(=O)/C=C\[C@]5(C)[C@H]4[C@@H](O)C[C@]23C	P12-Ichikawa	114%

Provide the reported cell viability of each entry below, same order.
1. CCN(CC)C(=S)SSC(=S)N(CC)CC
2. CC(=O)N1CCN(c2ccc(OCc3nn(C)c(C)c3-c3cccc4c(CCCOc5cccc6ccccc56)c(C(=O)O)n(Cc5cccnc5)c34)cc2)CC1
3. CC(=O)Nc1ccc([C@H](C)C(=O)Nc2ncc(C(C)C)s2)cc1
4. CCn1c(-c2nonc2N)nc2cncc(CNC3CCNCC3)c21
5. CN1\C(=C(\O)C2=C(C=CS2)[S+]1([O-])=O)C(=O)NC3=CC=CC=N3

result:
1: 109%; 2: 119%; 3: 92.1%; 4: 129%; 5: 111%

Provide the reported cell viability of each entry below, same order.
1. CC(C)Oc1cc(Nc2nc(N[C@@H](C)c3ccc(F)cn3)ncc2Cl)n[nH]1
2. CNC1[C@@H](O)C(O[C@@H]2C(O)C(O[C@H]3O[C@H]([C@@H](C)NC)CC[C@H]3N)[C@@H](N)C[C@H]2N)OC[C@]1(C)O (stereo partly drawn)

result:
1: 115%; 2: 102%

---

# System: P12-Ichikawa
# Run Description: cell viability relative to DMSO control; higher = less cytotoxic
# Test Conditions: HPLM + 10% dialyzed FBS; 48 h; 0.0211 µM
What cell viability was measured for each of the following?
Answers are plain numbers, in %.

Sample answers from the record:
Compound	Reading Unit	cell viability
CC(=O)N1CCN(c2ccc(OC[C@H]3CO[C@](Cn4ccnc4)(c4ccc(Cl)cc4Cl)O3)cc2)CC1	%	112
Clc1cc(Cl)cc(CNc2ncncc2-c2ccc3c(c2)OCO3)c1	%	97.4
CC(=O)Nc1ccc([C@H](C)C(=O)Nc2ncc(C(C)C)s2)cc1	%	98.4
CC[C@H]1/C=C\C=C/C[C@@H](C)[C@H](O)[C@@](C)(O)C(=O)[C@@H](C)[C@H](O)[C@@H](C)C(=O)[C@@H](C)[C@H](O)[C@@H](C)/C=C/C(=O)O[C@@H]2[C@H](C)[C@H](CC1)O[C@]1(CC[C@H](C)[C@H](C[C@@H](C)O)O1)[C@H]2C	%	102

Provide the reported cell viability of each entry below, same order.
1. COc1cc(Nc2ncc(F)c(Nc3ccc4c(n3)NC(=O)C(C)(C)O4)n2)cc(OC)c1OC
2. C\C1=C\N([C@H]2C[C@H](N=[N+]=[N-])[C@@H](CO)O2)C(=O)NC1=O

result:
1. 114
2. 120

---

What cell viability was measured for each of the following?
# Test system: P12-Ichikawa
# Run Description: cell viability relative to DMSO control; higher = less cytotoxic
# Test Conditions: RPMI 5 mM glucose + 10% FBS; 48 h; 0.00234 µM
Give bare numbers, in %.

Sample answers from the record:
Compound	Experimental System	cell viability, %
CN(C/C=C/C#CC(C)(C)C)Cc1cccc2ccccc12	P12-Ichikawa	93.1
NC(CO)(CO)CCc1ccc(Sc2cccc(OCc3ccccc3)c2)cc1Cl	P12-Ichikawa	99.7
C[N+]1(C)[C@@H]2C[C@@H](OC(=O)[C@H](CO)c3ccccc3)C[C@H]1[C@@H]1O[C@@H]12.[Br-]	P12-Ichikawa	103
CNC1[C@@H](O)C(O[C@@H]2C(O)C(O[C@H]3O[C@H]([C@@H](C)NC)CC[C@H]3N)[C@@H](N)C[C@H]2N)OC[C@]1(C)O (some centres undefined)	P12-Ichikawa	88.9
CN1CCC(CC1)COC2=CN=C(N=C2)C3=CC(=CC=C3)CN4/N=C(\C=C/C4=O)C5=CC(=CC=C5)C#N	P12-Ichikawa	113
CCN(CC)C(=S)SSC(=S)N(CC)CC	P12-Ichikawa	98.6
CCOc1ccc(Nc2nc(-c3c(C)nc4ccccn34)cs2)cc1	P12-Ichikawa	121
COc1cc2c(Oc3ccc(NC(=O)C4(C(=O)Nc5ccc(F)cc5)CC4)cc3F)ccnc2cc1OCCCN1CCOCC1	P12-Ichikawa	90.3

query: Using known records, supply cell viability for "CCc1c(C(=O)C(N)=O)c2c(OCC(=O)O)cccc2n1Cc1ccccc1"
result: 101

---

# Test system: NOMO1
# Run Description: AUC of viability dose-response curve (% viability x log10 dose units); higher = less sensitive
# Test Conditions: HPLM + 10% dialyzed FBS; 48 h
Label Condition met when AUC of viability dose-response curve is strictly below 400; otherwise label Condition not met.

Molecule	Qualitative Label
COc1cc(C(C)=O)ccc1OCCCN1CCC(c2noc3cc(F)ccc23)CC1	Condition not met
CCN(CC)C(=S)SSC(=S)N(CC)CC	Condition met
COc1cc(C)c(Sc2cnc(NC(=O)c3ccc(CNC(C)C(C)(C)C)cc3)s2)cc1C(=O)N1CCN(C(C)=O)CC1 (configuration not stated)	Condition not met
CCC(=O)OCC(=O)[C@@]1(OC(=O)CC)[C@@H](C)C[C@H]2[C@@H]3CCC4=CC(=O)C=C[C@]4(C)[C@@]3(F)[C@@H](O)C[C@@]21C	Condition met
CC(C)[C@@H](C[S+](=O)([O-])C(C)C)N1C(=O)[C@@](C)(CC(=O)O)C[C@H](c2cccc(Cl)c2)[C@H]1c1ccc(Cl)cc1	Condition met

query: Please let me know if "Cc1cccc(C#Cc2ccccc2)n1" shows AUC of viability dose-response curve below 400.
result: Condition not met

query: Please let me know if "C=CC1=C(C(=O)O)N2C(=O)[C@@H](NC(=O)/C(=N\O)c3csc(N)n3)[C@H]2SC1" shows AUC of viability dose-response curve below 400.
result: Condition not met

---

What cell viability was measured for each of the following?
# Tested on: P12-Ichikawa
# Run Description: cell viability relative to DMSO control; higher = less cytotoxic
# Test Conditions: RPMI 5 mM glucose + 10% dialyzed FBS; 48 h; 5.12 µM
Numbers only, in %.

Compound	Experimental System	cell viability (%)
OC[C@H]1O[C@H]([C@@H](F)[C@@H]1O)N2\C=C/C(=O)NC2=O	P12-Ichikawa	93.6
CN1CCC(CC1)COC2=CN=C(N=C2)C3=CC(=CC=C3)CN4/N=C(\C=C/C4=O)C5=CC(=CC=C5)C#N	P12-Ichikawa	118
CC(C)n1nc(-c2ccc3oc(N)nc3c2)c2c(N)ncnc21	P12-Ichikawa	41.5
C[C@@H]1CN[C@H]2[C@@H](C)[C@@]\3(CC[C@H]\4[C@@H]5C/C=C6/C[C@@H](O)CC[C@]6(C)[C@H]5CC4=C3C)O[C@@H]2C1	P12-Ichikawa	109

Provide the reported cell viability of each entry below, same order.
1. CNC1[C@@H](O)C(O[C@@H]2C(O)C(O[C@H]3O[C@H]([C@@H](C)NC)CC[C@H]3N)[C@@H](N)C[C@H]2N)OC[C@]1(C)O (stereo partly drawn)
2. CC(=O)CC(C1=CC=CC=C1)C/2=C(O)/C3=CC=CC=C3OC2=O (stereo not drawn)

result:
89.4
132
